Every entry's value here was drawn from the supplement of paper PMC5998384.

# Tested on: HeLa Kyoto
# measurement notes: thermal stability score vs G1/S (z-score of summed log2 fold changes over temperatures); higher = more thermally stable than in G1/S
# conditions: cell cycle stage: mitosis
property label: thermal stability score

Value lookup for thermal stability score; key = MSIMSYNGGAVMAMKGKNCVAIAADRRFGIQAQMVTTDFQKIFPMGDRLYIGLAGLATDVQTVAQRLKFRLNLYELKEGRQIKPYTLMSMVANLLYEKRFGPYYTEPVIAGLDPKTFKPFICSLDLIGCPMVTDDFVVSGTCAEQMYGMCESLWEPNMDPDHLFETISQAMLNAVDRDAVSGMGVIVHIIEKDKITTRTLKARMD [PSMB3] -1.25

---
Value lookup for thermal stability score; key = MGGKLSKKKKGYNVNDEKAKEKDKKAEGAATEEEGTPKESEPQAAAEPAEAKEGKEKPDQDAEGKAEEKEGEKDAAAAKEEAPKAEPEKTEGAAEAKAEPPKAPEQEQAAPGPAAGGEAPKAAEAAAAPAESAAPAAGEEPSKEEGEPKKTEAPAAPAAQETKSDGAPASDSKPGSSEAAPSSKETPAATEAPSSTPKAQGPAASAEEPKPVEAPAANSDQTVTVKE [BASP1] -9.69

Same question for MSDGDYDYLIKFLALGDSGVGKTSVLYQYTDGKFNSKFITTVGIDFREKRVVYRASGPDGATGRGQRIHLQLWDTAGQERFRSLTTAFFRDAMGFLLLFDLTNEQSFLNVRNWISQLQMHAYCENPDIVLCGNKSDLEDQRVVKEEEAIALAEKYGIPYFETSAANGTNISQAIEMLLDLIMKRMERCVDKSWIPEGVVRSNGHASTDQLSEEKEKGACGC [RAB27A] please. 2.1

---

# System: HeLa Kyoto;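 note: synchronized HeLa Kyoto cells, proteins quantified by TMT10plex mass spectrometry, three biological replicates, mitosis taken 0.5 h after nocodazole release, G1/S directly after double thymidine block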
# measurement notes: thermal stability score vs G1/S (z-score of summed log2 fold changes over temperatures); higher = more thermally stable than in G1/S
# conditions: cell cycle stage: early G1 (4.5 h after nocodazole release)
# maps each entry to its thermal stability score
Keep the answer to the number alone.

Examples with their reported thermal stability score follow.
Value lookup for thermal stability score; key = MSMEDYDFLFKIVLIGNAGVGKTCLVRRFTQGLFPPGQGATIGVDFMIKTVEINGEKVKLQIWDTAGQERFRSITQSYYRSANALILTYDITCEESFRCLPEWLREIEQYASNKVITVLVGNKIDLAERREVSQQRAEEFSEAQDMYYLETSAKESDNVEKLFLDLACRLISEARQNTLVNNVSSPLPGEGKSISYLTCCNFN [RAB30] 0.727

Same question for MGKRDNRVAYMNPIAMARSRGPIQSSGPTIQDYLNRPRPTWEEVKEQLEKKKKGSKALAEFEEKMNENWKKELEKHREKLLSGSESSSKKRQRKKKEKKKSGRYSSSSSSSSDSSSSSSDSEDEDKKQGKRRKKKKNRSHKSSESSMSETESDSKDSLKKKKKSKDGTEKEKDIKGLSKKRKMYSEDKPLSSESLSESEYIEEVRAKKKKSSEEREKATEKTKKKKKHKKHSKKKKKKAASSSPDSP [FAM133B] please. -5.3

Could you now look at the following sequence, please?
Value lookup for thermal stability score; key = MSSIGTGYDLSASTFSPDGRVFQVEYAMKAVENSSTAIGIRCKDGVVFGVEKLVLSKLYEEGSNKRLFNVDRHVGMAVAGLLADARSLADIAREEASNFRSNFGYNIPLKHLADRVAMYVHAYTLYSAVRPFGCSFMLGSYSVNDGAQLYMIDPSGVSYGYWGCAIGKARQAAKTEIEKLQMKEMTCRDIVKEVAKIIYIVHDEVKDKAFELELSWVGELTNGRHEIVPKDIREEAEKYAKESLKEEDESDDDNM [PSMA3] -2.57
